System: human mammary carcinoma MCF-7
Experiment: Growth inhibition against human mammary carcinoma MCF-7 cells (MTT)
Format: cell-based
Conditions: MCF7, 72 hours
reported property: IC50 (µM)
Record the value in µM, omitting the unit from your answer.

Asked: Assign IC50 to the following record: CC1C=CC2CCCCC2C1C(=O)C1C(=O)N2CCC3C(=O)OC1C32O (centres unmarked) [UCS1025A]
Given back: 21
